Biological target: InsP3-gated Ca channel tetrameric complex
Test: Mathematical model of the tetrameric InsP3-gated channel complex
Conditions: read-out: Model dissociation constant, InsP3 low affinity site (J); 22°C
pKd: −log10 of the molar value.
observed property: pKd

[[record]]
molecule = "O=P(O)(O)O[C@@H]1[C@H](O)[C@H](O)[C@@H](OP(=O)(O)O)[C@H](OP(=O)(O)O)[C@H]1O [InsP3, inositol 1,4,5-trisphosphate]"
reported = 5.00


---

Biological target: UniProtKB A0A8I3NKB2
Sequence (A0A8I3NKB2 1-2757): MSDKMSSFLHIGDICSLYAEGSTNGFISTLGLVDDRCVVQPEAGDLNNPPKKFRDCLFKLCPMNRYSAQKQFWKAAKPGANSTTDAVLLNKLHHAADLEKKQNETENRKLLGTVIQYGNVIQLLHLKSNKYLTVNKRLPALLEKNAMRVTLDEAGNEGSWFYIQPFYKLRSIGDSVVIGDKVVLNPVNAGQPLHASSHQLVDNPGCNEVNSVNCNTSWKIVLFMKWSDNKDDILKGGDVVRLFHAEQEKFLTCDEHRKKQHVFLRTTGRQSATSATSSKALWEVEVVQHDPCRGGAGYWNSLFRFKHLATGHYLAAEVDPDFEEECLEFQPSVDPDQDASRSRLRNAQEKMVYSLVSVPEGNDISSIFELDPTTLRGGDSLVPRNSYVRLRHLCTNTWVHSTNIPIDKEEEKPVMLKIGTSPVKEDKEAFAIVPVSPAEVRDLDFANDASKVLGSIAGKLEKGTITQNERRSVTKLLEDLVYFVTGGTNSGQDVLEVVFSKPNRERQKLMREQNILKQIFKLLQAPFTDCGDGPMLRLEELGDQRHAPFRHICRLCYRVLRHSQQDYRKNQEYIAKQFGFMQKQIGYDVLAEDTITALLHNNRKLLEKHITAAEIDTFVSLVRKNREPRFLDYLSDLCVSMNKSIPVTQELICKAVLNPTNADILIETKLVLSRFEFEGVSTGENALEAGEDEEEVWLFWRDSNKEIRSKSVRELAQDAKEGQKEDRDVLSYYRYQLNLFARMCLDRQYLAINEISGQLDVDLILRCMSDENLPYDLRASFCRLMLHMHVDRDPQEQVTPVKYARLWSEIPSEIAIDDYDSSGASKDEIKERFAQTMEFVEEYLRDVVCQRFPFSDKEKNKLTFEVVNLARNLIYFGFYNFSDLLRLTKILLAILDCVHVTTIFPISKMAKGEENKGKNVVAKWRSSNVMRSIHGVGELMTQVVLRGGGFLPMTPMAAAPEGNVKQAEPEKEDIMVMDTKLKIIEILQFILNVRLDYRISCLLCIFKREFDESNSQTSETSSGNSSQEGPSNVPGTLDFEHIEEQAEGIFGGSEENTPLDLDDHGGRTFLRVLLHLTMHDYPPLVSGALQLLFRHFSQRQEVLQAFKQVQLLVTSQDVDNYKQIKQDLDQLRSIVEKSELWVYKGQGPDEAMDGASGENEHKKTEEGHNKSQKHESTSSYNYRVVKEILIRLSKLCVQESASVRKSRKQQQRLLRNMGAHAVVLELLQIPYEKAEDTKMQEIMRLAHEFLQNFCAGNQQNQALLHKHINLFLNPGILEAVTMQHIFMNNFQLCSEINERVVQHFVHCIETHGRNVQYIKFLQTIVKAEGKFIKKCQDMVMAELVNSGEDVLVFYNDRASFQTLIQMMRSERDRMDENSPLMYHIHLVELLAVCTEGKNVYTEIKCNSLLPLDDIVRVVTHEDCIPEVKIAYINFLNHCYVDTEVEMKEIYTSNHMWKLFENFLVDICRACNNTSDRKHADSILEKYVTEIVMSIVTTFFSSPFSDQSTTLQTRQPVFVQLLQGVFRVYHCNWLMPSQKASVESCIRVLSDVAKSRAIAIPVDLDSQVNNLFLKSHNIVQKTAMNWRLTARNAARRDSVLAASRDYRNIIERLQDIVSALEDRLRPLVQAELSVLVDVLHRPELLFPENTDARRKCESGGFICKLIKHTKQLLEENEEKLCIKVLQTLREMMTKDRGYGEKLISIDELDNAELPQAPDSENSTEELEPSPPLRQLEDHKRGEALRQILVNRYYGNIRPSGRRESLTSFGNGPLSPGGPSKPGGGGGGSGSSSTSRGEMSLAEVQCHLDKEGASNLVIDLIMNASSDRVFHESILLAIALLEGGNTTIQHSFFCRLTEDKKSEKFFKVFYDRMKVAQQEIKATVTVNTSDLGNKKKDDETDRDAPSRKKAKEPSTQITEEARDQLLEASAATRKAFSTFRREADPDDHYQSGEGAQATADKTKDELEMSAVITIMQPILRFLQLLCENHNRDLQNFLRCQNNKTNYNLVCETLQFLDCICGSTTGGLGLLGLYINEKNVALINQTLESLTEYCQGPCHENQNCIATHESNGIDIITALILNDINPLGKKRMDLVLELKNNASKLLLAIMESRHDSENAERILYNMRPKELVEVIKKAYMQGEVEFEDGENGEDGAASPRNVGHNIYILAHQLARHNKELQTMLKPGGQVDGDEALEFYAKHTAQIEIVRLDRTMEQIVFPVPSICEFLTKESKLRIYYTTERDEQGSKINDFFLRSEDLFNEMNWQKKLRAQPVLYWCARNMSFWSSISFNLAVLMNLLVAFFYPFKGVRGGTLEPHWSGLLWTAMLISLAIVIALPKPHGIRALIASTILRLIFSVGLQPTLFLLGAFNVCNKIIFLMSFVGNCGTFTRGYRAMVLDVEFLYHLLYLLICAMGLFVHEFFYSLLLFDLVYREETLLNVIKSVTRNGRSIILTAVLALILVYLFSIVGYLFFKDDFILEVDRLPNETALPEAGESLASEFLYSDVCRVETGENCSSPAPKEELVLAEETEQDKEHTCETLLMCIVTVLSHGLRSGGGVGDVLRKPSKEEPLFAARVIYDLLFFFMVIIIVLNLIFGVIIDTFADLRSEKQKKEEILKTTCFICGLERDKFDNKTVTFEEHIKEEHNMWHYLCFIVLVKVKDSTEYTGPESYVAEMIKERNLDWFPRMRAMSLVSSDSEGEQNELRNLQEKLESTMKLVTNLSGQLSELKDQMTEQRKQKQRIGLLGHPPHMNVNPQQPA
Experiment: InsP3 binding to cerebellar microsomes
Design: species or system canine
Conditions: read-out: Kd for InsP3 binding at high Ca; 22°C, 50 μM free Ca
observed property: Kd (µM)

[[record]]
compound = "O=P(O)(O)O[C@@H]1[C@H](O)[C@H](O)[C@@H](OP(=O)(O)O)[C@H](OP(=O)(O)O)[C@H]1O [InsP3, inositol 1,4,5-trisphosphate]"
tgt = "UniProtKB A0A8I3NKB2"
observed_property = "Kd"
units_of_measure = "µM"
reported = 1.78


Values compiled from paper PMC2225610.
